Target: UniProtKB P03372
Sequence (P03372 whole entry): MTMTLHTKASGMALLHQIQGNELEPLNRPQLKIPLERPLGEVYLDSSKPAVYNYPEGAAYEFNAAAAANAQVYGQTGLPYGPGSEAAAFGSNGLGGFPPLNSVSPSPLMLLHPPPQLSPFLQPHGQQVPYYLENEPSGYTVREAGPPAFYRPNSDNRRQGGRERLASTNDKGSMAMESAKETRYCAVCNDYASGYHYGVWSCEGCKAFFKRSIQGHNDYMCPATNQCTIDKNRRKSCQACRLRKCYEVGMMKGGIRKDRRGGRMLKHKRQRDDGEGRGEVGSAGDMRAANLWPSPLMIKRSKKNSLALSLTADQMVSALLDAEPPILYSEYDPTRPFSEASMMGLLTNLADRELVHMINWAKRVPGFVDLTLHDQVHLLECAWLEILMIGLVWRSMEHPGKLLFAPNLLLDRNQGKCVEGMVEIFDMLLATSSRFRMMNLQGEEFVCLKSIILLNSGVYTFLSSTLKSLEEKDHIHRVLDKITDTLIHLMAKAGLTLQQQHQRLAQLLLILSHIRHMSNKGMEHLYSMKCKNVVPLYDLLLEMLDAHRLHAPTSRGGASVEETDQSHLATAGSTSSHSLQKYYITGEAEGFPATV
Assay: Western blot analysis (Compounds B1-B278)
Assay type: cell-based
Settings: ER degradation by traditional Western blot; DC50 classes
Excerpt: Western Blot Analysis. […] The blots are scanned, and the band intensities are quantified (e.g., by using GelQuant.NET software provided by biochemlabsolutions.com). […] Western Blot Analysis. […] The blots were scanned, and the band intensities were quantified using GelQuant.NET software provided by biochemlabsolutions.com. […]

compound: C[C@@H]1Cc2c([nH]c3ccccc23)[C@@H](c2c(F)cc(N3CCC(N4CCC(C(=O)N5Cc6cc7c(cc6C5)C(=O)N(C5CCC(=O)NC5=O)C7=O)CC4)C3)cc2F)N1CC(F)F (stereo partly shown)
Traditional Western Degradation Potency: C (“C”: >100 nM)
--
compound: C[C@@H]1Cc2c([nH]c3ccccc23)[C@@H](c2c(F)cc(N3CCC(CN4Cc5cc6c(cc5C4)C(=O)N(C4CCC(=O)NC4=O)C6=O)CC3)cc2F)N1CC(F)F (stereo partly shown)
Traditional Western Degradation Potency: C (“C”: >100 nM)
--
compound: C[C@@H]1Cc2c([nH]c3ccccc23)[C@@H](c2cnc(N3CC4(CCC(CN5Cc6cc7c(cc6C5)C(=O)N(C5CCC(=O)NC5=O)C7=O)CC4)C3)nc2)N1CC(C)(C)F (stereo partly shown)
Traditional Western Degradation Potency: C (“C”: >100 nM)
--
compound: C[C@@H]1Cc2c([nH]c3ccccc23)[C@@H](c2ccc(C3=CCC(C(=O)N4CCC(N5Cc6cc7c(cc6C5)C(=O)N(C5CCC(=O)NC5=O)C7=O)CC4)CC3)nc2)N1CC(F)F (stereo partly shown)
Traditional Western Degradation Potency: C (“C”: >100 nM)
--
compound: C[C@@H]1Cc2c([nH]c3ccccc23)[C@@H](c2c(F)cc(N3CC4(CCN4CC(=O)N4Cc5cc6c(cc5C4)C(=O)N(C4CCC(=O)NC4=O)C6)C3)cc2F)N1CC(F)F (stereo partly shown)
Traditional Western Degradation Potency: C (“C”: >100 nM)
